System: Cryptococcus neoformans
Experiment: Antifungal activity against Cryptococcus neoformans ATCC 90113 by CLSI method
Type: functional, organism-based
Activity calls are given as the source filed them. The calls are words filed in the database; no cut-off is given here.
measure: MIC

Field: example entries. Status: answers known.
[
  {
    "chem smiles": "Brc1ccc(C(c2c[nH]c3ccc(I)cc23)c2c[nH]c3ccc(I)cc23)cc1",
    "MIC": "30.7 µM"
  },
  {
    "chem smiles": "O=[N+]([O-])c1ccc(C(c2c[nH]c3ccccc23)c2c[nH]c3ccccc23)o1",
    "MIC": "inactive"
  },
  {
    "chem smiles": "Clc1ccc(C(c2c[nH]c3ccccc23)c2c[nH]c3ccccc23)cc1",
    "MIC": "14 µM"
  },
  {
    "chem smiles": "Oc1ccc(C(c2c[nH]c3ccccc23)c2c[nH]c3ccccc23)cc1",
    "MIC": "29.6 µM"
  },
  {
    "chem smiles": "COc1cc(C(c2c[nH]c3ccc(I)cc23)c2c[nH]c3ccc(I)cc23)ccc1O",
    "MIC": "32.3 µM"
  }
]

Input line: Return the recorded MIC value; entry: `COc1ccc2[nH]cc(C(c3cc(F)cc(F)c3)c3c[nH]c4ccc(OC)cc34)c2c1`
Output line: 47.9 µM

Input line: Return the recorded MIC value; entry: `Oc1ccccc1C(c1c[nH]c2ccccc12)c1c[nH]c2ccccc12`
Output line: 59.2 µM

Input line: Return the recorded MIC value; entry: `COc1ccc(C(c2c[nH]c3ccccc23)c2c[nH]c3ccccc23)cc1O`
Output line: 27.2 µM

Input line: Return the recorded MIC value; entry: `Fc1ccc(C(c2c[nH]c3ccccc23)c2c[nH]c3ccccc23)cc1Br`
Output line: 2.99 µM

Input line: Return the recorded MIC value; entry: `COc1ccc(C(c2c[nH]c3ccccc23)c2c[nH]c3ccccc23)cc1`
Output line: inactive
